Source listed as the RNAGym collection of RNA variant scans (doi:10.7554/elife.80360).

B1: CPEB3 Ribozyme (parent)
chain: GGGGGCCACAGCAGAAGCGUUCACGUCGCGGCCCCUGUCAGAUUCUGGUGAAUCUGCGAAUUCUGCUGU

- Variants of: B1
- Run description: self-cleavage, relative activity (ratio to wild type); higher = more cleavage; co-transcriptional
Assign yes to entries whose self-cleavage meets or exceeds 0.3; assign no to the rest.

Example cases with answers are listed next.
GGGGGCCACAGCAGAAGCGUUCACGUCGCGGCGCCUGUCAGAUUCUGGUCAAUCUGCGAAUUCUGCUGU [C33G G50C] : yes
GGAGGCCACAGCAGAAGCGUUGACGUCGCGGCCCCUGUCAGAUUCUGGUGAAUCUGCGAAUUCUGCUGU [G3A C22G] : no
GGGGGCCACAGCAGAAGCGUUCACGUCGCGGCCCCUGUCAGAUCCUGGUGAAUCUGCGAAUUCUCCUGU [U44C G65C] : yes
GGGGGCCACAGCAGAAGCGUUCACGUCGCGGCCCCUGUUAGGUUCUGGUGAAUCUGCGAAUUCUGCUGU [C39U A42G] : yes
GGGGGCCACACCAGAAGCGUUCACGUCGCGGCCCCUGUCAGUUUCUGGUGAAUCUGCGAAUUCUGCUGU [G11C A42U] : yes
GGGGGCCACAGCAGAAGCGUUCACGUCGCGGCCCCUGUCAGAUUCUGGUGAAUCUGGGAAUUCAGCUGU [C57G U64A] : yes
GGGGGCCACAGCAGAAGCGUUCACGUCGCGGCCCCAGUCAGAUUCUGGUGAAUCUGCGAUUUCUGCUGU [U36A A60U] : no
GGGGGCCACAGCAGAAGCGUUCACGUCGCGGCCCGUGUCCGAUUCUGGUGAAUCUGCGAAUUCUGCUGU [C35G A40C] : no

Asked: Quick check, self-cleavage >= 0.3? GGGGGCCACAGCAGGAGCGUUCACGUCGCGGCCCCUUUCAGAUUCUGGUGAAUCUGCGAAUUCUGCUGU [A15G G37U]
Given back: no

Asked: // same read-out, input: GGGGGCCACAGCAGAAUCGUUCACGUCGCGGCCCCUGUCAGAUUCUGGUGAAUCUGCGUAUUCUGCUGU [G17U A59U]
Given back: no
